Parameter IC50: see the listing below.
Biological target: T1, human IgE (human, UniProt P01854)
T1 chain: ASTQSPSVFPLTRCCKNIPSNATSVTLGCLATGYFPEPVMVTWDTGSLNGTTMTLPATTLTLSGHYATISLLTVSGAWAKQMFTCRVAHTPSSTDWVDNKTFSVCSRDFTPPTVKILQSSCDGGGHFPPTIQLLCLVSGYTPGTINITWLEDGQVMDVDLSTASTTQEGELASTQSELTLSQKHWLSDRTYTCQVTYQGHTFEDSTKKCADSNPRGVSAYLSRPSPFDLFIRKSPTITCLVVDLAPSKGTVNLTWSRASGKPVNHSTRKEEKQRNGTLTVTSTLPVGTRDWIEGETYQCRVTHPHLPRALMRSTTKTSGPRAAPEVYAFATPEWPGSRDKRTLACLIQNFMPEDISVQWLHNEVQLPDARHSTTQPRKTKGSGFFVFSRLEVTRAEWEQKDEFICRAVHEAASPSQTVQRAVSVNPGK
Experiment: competition ELISA, pH 7.4
Write the value in ng/mL as a bare number.

{"columns": ["binder", "IC50 (ng/mL)"],
 "data": [
  ["18E2_VH_S35H_VL_Y34H (18E2His2) (antibody, V domains shown) VH: QLQLVESGGGLVQPGGSLRLSCAASGFTFSSYVMHWVRQAPGKGLEWVSSIYHDGSHTYYADFVKGRFTISRDNAKNTLYLQMNSLKSEDTAVYYCASGTSYSGSYYYTDPFFGSWGQGTQVTVSS VL: NFMLTQPSALSVTLGQTARITCQGDRLGSRYIHWYQQKPPQAPVLVIHDDDRRPSGIPERFSGSSSGGTATLTISGAQAEDDGDYYCQSADSSGNPVFGGGTHLTVL", 2480],
  ["13E4-hIgG1-ABDEG (antibody, V domains shown) VH: ELQLVESGGGLVQPGGSLRLSCAASGFTFSSYVMSWVRQAPGKGLEWVSSIYHDGSHTYYADFVKGRFTISRDNAKNTLYLQMNSLKSEDTAVYYCASGTSYSGSYYYTDPFFGSWGQGTQVTVSS VL: HSAVTQPSALSVTLGQTAKITCQGGSLGSNYAYWYQQKPGQAPVLVIYDDDSRPSGIPERFSGSSSGGTATLTISGAQAEDEGDYYCQSADSNGNAVFGGGTHLTVL", 6.5]
]}

stdin: Which IC50 reading was recorded for the binder 13E4 (antibody, V domains shown) VH: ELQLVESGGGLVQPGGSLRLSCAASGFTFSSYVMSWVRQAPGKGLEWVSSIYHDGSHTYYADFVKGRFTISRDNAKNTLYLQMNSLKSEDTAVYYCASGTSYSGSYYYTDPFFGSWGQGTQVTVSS VL: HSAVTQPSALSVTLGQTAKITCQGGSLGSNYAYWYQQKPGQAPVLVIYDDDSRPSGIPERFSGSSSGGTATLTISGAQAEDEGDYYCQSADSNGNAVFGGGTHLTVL ?
stdout: 6.82
